- Tested on: Plasmodium falciparum
- PROCEDURE_TEXT: NOVARTIS: Inhibition of Plasmodium falciparum 3D7 (drug-susceptible) proliferation in erythrocyte-based infection assay
- Format: functional, organism-based
- CONDITION_LABEL: Plasmodium falciparum, 3D7
Lab note - cut at 300 nM for EC50: y if strictly below, n if not.

Please review the following examples before continuing.
# COMPOUND, CLASS_ASSIGNMENT
records = [
    ("Cn1c(=O)[nH]c(=O)c2c1nc(N1CCCCCC1)n2CC(O)COc1ccc([N+](=O)[O-])cc1 (stereo unspecified)", "n"),
    ("COC(=O)CNC(c1ccccc1Cl)c1cc(Br)ccc1NS(=O)(=O)c1ccc(C)cc1 (stereo unspecified)", "n"),
    ("CC(=O)N(C1=C(N2CCOCC2)C(=O)c2ccccc2C1=O)c1ccc(F)cc1", "y"),
    ("Fc1ccc(-c2c[n+](Cc3ccc(Cl)cc3Cl)c3n2CCC3)cc1", "n"),
]

Lab log: compare recorded EC50 with 300 nM; is it strictly lower for CC(C)CN1C(=O)c2ccccc2C(C(=O)Nc2cc(F)ccc2F)C1c1cccs1 (stereo unspecified) ?
y

Lab log: compare recorded EC50 with 300 nM; is it strictly lower for CCOC(=O)C1=C(c2ccccc2)N=c2sc(=Cc3cc(C)n(-c4ccc(F)cc4)c3C)c(=O)n2C1c1cccc(OC)c1OC (stereo unspecified) ?
n

Lab log: compare recorded EC50 with 300 nM; is it strictly lower for CC1CCC(C(C)(C)Oc2ccc(NC(=O)c3ccccc3)cc2)CC1 (stereo unspecified) ?
n

Lab log: compare recorded EC50 with 300 nM; is it strictly lower for C=C[C@H]1CN2CC[C@H]1C[C@@H]2[C@@H](OC(=O)Cc1ccccc1)c1ccnc2ccccc12 ?
y

Lab log: compare recorded EC50 with 300 nM; is it strictly lower for O=C(CSc1ccc2nnc(-c3cccs3)n2n1)Nc1ccccc1 ?
n

Lab log: compare recorded EC50 with 300 nM; is it strictly lower for Cc1cc(N2CCN(C3CCCCC3)CC2)n2c(nc3ccccc32)c1C#N ?
y

Lab log: compare recorded EC50 with 300 nM; is it strictly lower for O=C1Nc2ccccc2Sc2ccccc21 ?
n

Lab log: compare recorded EC50 with 300 nM; is it strictly lower for CCC(C(=O)N(C)CCCNc1ccnc2cc(Cl)ccc12)c1ccccc1 (stereo unspecified) ?
n

Lab log: compare recorded EC50 with 300 nM; is it strictly lower for c1ccc2c(NCCNc3c4ccccc4nc4ccccc34)c3ccccc3nc2c1 ?
y

Lab log: compare recorded EC50 with 300 nM; is it strictly lower for O=C(c1ccc(-n2c(SCc3ccc(Cl)cc3)nc3ccccc3c2=O)cc1)N1CCOCC1 ?
n

Lab log: compare recorded EC50 with 300 nM; is it strictly lower for COc1ccc(CCNc2nc(NCCCN(C)C)ncc2C(=O)NCc2ccccc2)cc1OC ?
n

Lab log: compare recorded EC50 with 300 nM; is it strictly lower for CC(C(=O)NCCCN)N(Cc1ccccc1)S(C)(=O)=O (stereo unspecified) ?
n
